Test: Baboon plasma analyses: blood kinetics and metabolism
Type: in vivo, baboon (Papio anubis)
Conditions: in vivo, iv; baboon plasma, 30 min after injection; read-out: % of Unchanged N-(3-[^18 F]fluoropropyl)spiroperidol
Experimental: Baboon Plasma Analyses: Blood was sampled from the femoral artery at initial intervals of 5 sec. Aliquots of plasma were counted to determine the total plasma radioactivity clearance curve. Representative samples (Table 6) were also analyzed for unchanged N-(3-[^18 F]fluoropropyl)spiroperidol. The baboon blood total plasma radioactivity clearance curve following injection of NCA N-(3-[^18 F]fluoropropyl)spiroperidol is depicted in FIG. 1. The blood clearance was very rapid. […]
READOUT_LABEL: remaining at 0.5 h (%)
Express your answer in %, writing the number without its unit.

The measured remaining at 0.5 h associated with O=C(CCCN1CCC2(CC1)C(=O)N(CCC[18F])CN2c1ccccc1)c1ccc(F)cc1 [N-(3-[^18 F]fluoropropyl)spiroperidol] reads 41
